- Test system: CCRIS mutagenicity, Ames/micronucleus/aberration tests
- Assay protocol: CCRIS mutagenicity studies
- Recorded conditions: Test System: E. COLI; Strain/Indicator: WP2 UVRA; Metabolic Activation: RAT, LIVER, S-9, PHENOBARBITAL AND 5,6-BENZOFLAVONE; Method: PREINCUBATION
The source made the active and inactive calls. No rule for the calls is given here.

{"columns": ["Compound", "Assayed target", "mutagenic call"],
 "data": [
  ["COc1ccc(-c2noc(CC(=O)O)c2-c2ccc(OC)cc2)cc1", "CCRIS mutagenicity, Ames/micronucleus/aberration tests", "inactive; negative"],
  ["Cc1c(F)c(N2CCNC(C)C2)cc2c1c(=O)c(C(=O)O)cn2C1CC1 (centres undefined)", "CCRIS mutagenicity, Ames/micronucleus/aberration tests", "inactive; negative"],
  ["CC(C)Br", "CCRIS mutagenicity, Ames/micronucleus/aberration tests", "inactive; negative"],
  ["CC(=O)c1cc(N)ccc1OCC(O)CNC(C)(C)C (centres undefined)", "CCRIS mutagenicity, Ames/micronucleus/aberration tests", "inactive; negative"]
]}

###

- Tested on: CCRIS mutagenicity, Ames/micronucleus/aberration tests
- Assay protocol: CCRIS mutagenicity studies
- Recorded conditions: Test System: Mouse lymphoma; Strain/Indicator: L5178Y (tk+/tk-); Metabolic Activation: Rat, Liver, S-9, Aroclor 1254; Method: Suspension/plate
The source made the active and inactive calls. The rule behind the calls is not given here.
Possible outcomes: active, inactive

{"columns": ["Compound", "Assayed target", "Assigned class"],
 "data": [
  ["c1ccc2nccnc2c1", "CCRIS mutagenicity, Ames/micronucleus/aberration tests", "active"],
  ["O=S(Cl)Cl", "CCRIS mutagenicity, Ames/micronucleus/aberration tests", "inactive"],
  ["CC(C)[C@]12CC(=O)[C@H](C)[C@H]1C2", "CCRIS mutagenicity, Ames/micronucleus/aberration tests", "active"],
  ["CCN(Cc1cccc(S(=O)(=O)O)c1)c1ccc(C(=C2C=CC(=[N+](CC)Cc3cccc(S(=O)(=O)[O-])c3)C=C2)c2ccc(S(=O)(=O)O)cc2)cc1", "CCRIS mutagenicity, Ames/micronucleus/aberration tests", "inactive"],
  ["Cc1ccc(N)cc1O", "CCRIS mutagenicity, Ames/micronucleus/aberration tests", "inactive"],
  ["[Cl][Cr]([Cl])[Cl]", "CCRIS mutagenicity, Ames/micronucleus/aberration tests", "active"],
  ["O=S(=O)(O)c1ccc(-c2nnc(-c3ccccn3)nc2-c2ccc(S(=O)(=O)O)cc2)cc1", "CCRIS mutagenicity, Ames/micronucleus/aberration tests", "inactive"],
  ["CC(C)(C)Cl", "CCRIS mutagenicity, Ames/micronucleus/aberration tests", "inactive"],
  ["Clc1ccccc1C(c1ccccc1)C(c1ccccc1)c1ccccc1Cl (stereo not given)", "CCRIS mutagenicity, Ames/micronucleus/aberration tests", "active"],
  ["Nc1ccc(S(N)(=O)=O)cc1", "CCRIS mutagenicity, Ames/micronucleus/aberration tests", "inactive"]
]}

###

- Tested on: CCRIS mutagenicity, Ames/micronucleus/aberration tests
- Assay protocol: CCRIS mutagenicity studies
- Recorded conditions: Test System: AMES SALMONELLA TYPHIMURIUM; Strain/Indicator: TA100; Metabolic Activation: RAT, LIVER, S-9, AROCLOR 1254; Method: STANDARD PLATE
- Excerpt: The CCRIS database contains chemical records with carcinogenicity, mutagenicity, tumor promotion, and tumor inhibition test results. It was developed by the National Cancer Institute (NCI). Data are derived from studies cited in primary journals, current awareness tools, NCI reports, and other sources. Test results have been reviewed by experts in carcinogenesis and mutagenesis. CCRIS provides historical information from the years 1985 - 2011. It is no longer updated. […]
Active and inactive are the calls of the source. How the calls were made is not given here.
Possible outcomes: class 1 (active), class 0 (inactive)

{"columns": ["Molecule", "Assigned class"],
 "data": [
  ["NN(Cc1ccccc1)Cc1ccccc1", "class 0"],
  ["CC1NC(C(=O)O)Cc2c1[nH]c1ccccc21 (centres undefined)", "class 0"],
  ["Clc1cccc(Cl)n1", "class 0"],
  ["CC(C)NCC(O)COc1cccc2[nH]c3ccccc3c12 (centres undefined)", "class 0"],
  ["Cc1cc(C(O)c2ncc([N+](=O)[O-])n2C)c(O)c(C(C)(C)C)c1 (centres undefined)", "class 0"],
  ["C1COCO1", "class 0"],
  ["CN1Cc2c(N)cccc2C(c2ccccc2)C1 (centres undefined)", "class 0"],
  ["CN=C=O", "class 0"],
  ["Cc1ccc(N)cc1Cl", "class 0"],
  ["O=C(/C=C/c1ccc(F)cc1)c1ccccc1", "class 0"],
  ["COc1cc2c(c3oc(=O)c4c(c13)[C@@H](O)CC4=O)[C@@H]1C=CO[C@@H]1O2", "class 1"],
  ["C=CC(=O)OCCCCCC", "class 0"],
  ["O=C(c1ccccc1)n1ncc(Cl)c(Cl)c1=O", "class 0"],
  ["Nc1ccccc1", "class 0"],
  ["CCC(CCC(C)=O)COC(=O)CCCCC(=O)O (centres undefined)", "class 0"],
  ["Cc1ccc(S(=O)(=O)n2ncc(Cl)c(Cl)c2=O)cc1", "class 0"],
  ["CC(=O)c1ccc(Cl)c(Cl)c1Cl", "class 1"],
  ["F", "class 0"],
  ["Cc1cc(S(=O)(=O)O)c(N)cc1Cl", "class 0"]
]}

###

- System: CCRIS mutagenicity, Ames/micronucleus/aberration tests
- Assay protocol: CCRIS mutagenicity studies
- Recorded conditions: Test System: E.COLI; Strain/Indicator: WP2 UVRA; Metabolic Activation: RAT LIVER S-9, PCB; Method: PREINCUBATION
Activity calls are given as the source filed them. No rule for the calls is given here.
Possible outcomes: Y = active, N = inactive

{"columns": ["Compound", "Assigned class"],
 "data": [
  ["O=C(Cl)c1ccccc1Cl", "Y"],
  ["O=Cc1cccc(Cl)c1Cl", "N"],
  ["Cc1ccc(C(=O)Cl)cc1", "Y"],
  ["O=C(Cl)C(Cl)c1ccccc1 (stereo unspecified)", "Y"],
  ["O=C(O)c1cc(Cl)ccc1Cl", "N"],
  ["O=C(Cl)Cc1ccccc1", "Y"]
]}

###

- Tested on: CCRIS mutagenicity, Ames/micronucleus/aberration tests
- Assay protocol: CCRIS mutagenicity studies
- Recorded conditions: Test System: AMES SALMONELLA TYPHIMURIUM; Strain/Indicator: TA100; Metabolic Activation: NONE; Method: PREINCUBATION
Active and inactive are the calls of the source. No rule for the calls is given here.
Possible outcomes: T for active, F for inactive

{"columns": ["Compound", "Assayed target", "Assigned class"],
 "data": [
  ["Nc1cc(Cl)cc(S(=O)(=O)O)c1O", "CCRIS mutagenicity, Ames/micronucleus/aberration tests", "F"],
  ["CNC(=O)CSP(=S)(OC)OC", "CCRIS mutagenicity, Ames/micronucleus/aberration tests", "T"],
  ["c1cc(OCC2CO2)cc(OCC2CO2)c1 (stereo unspecified)", "CCRIS mutagenicity, Ames/micronucleus/aberration tests", "T"],
  ["O=[N+]([O-])c1ccc(NCCO)c(OCCO)c1", "CCRIS mutagenicity, Ames/micronucleus/aberration tests", "T"],
  ["[Cl][Hg][Cl]", "CCRIS mutagenicity, Ames/micronucleus/aberration tests", "F"],
  ["O=[N+]([O-])c1ccccc1S(=O)(=O)O", "CCRIS mutagenicity, Ames/micronucleus/aberration tests", "F"],
  ["Oc1cccc(Nc2ccccc2)c1", "CCRIS mutagenicity, Ames/micronucleus/aberration tests", "F"],
  ["CCn1c2ccccc2c2cc(N)ccc21", "CCRIS mutagenicity, Ames/micronucleus/aberration tests", "F"],
  ["COc1ccc(-c2noc(CC(=O)O)c2-c2ccc(OC)cc2)cc1", "CCRIS mutagenicity, Ames/micronucleus/aberration tests", "F"],
  ["O=C(Cl)c1ccccc1Cl", "CCRIS mutagenicity, Ames/micronucleus/aberration tests", "T"],
  ["CCC/C=C/C=O", "CCRIS mutagenicity, Ames/micronucleus/aberration tests", "F"],
  ["Nc1cccc(Cl)c1", "CCRIS mutagenicity, Ames/micronucleus/aberration tests", "F"],
  ["COc1ccc2cc([C@H](C)C(=O)O)ccc2c1", "CCRIS mutagenicity, Ames/micronucleus/aberration tests", "F"],
  ["N[C@@H](CS/C=C/Cl)C(=O)O", "CCRIS mutagenicity, Ames/micronucleus/aberration tests", "F"],
  ["COc1cc(CNC(=O)CCCC/C=C/C(C)C)ccc1O", "CCRIS mutagenicity, Ames/micronucleus/aberration tests", "F"],
  ["O=[N+]([O-])c1ccc2ccc3cccc4c3c2c1C1OC41 (stereo unspecified)", "CCRIS mutagenicity, Ames/micronucleus/aberration tests", "T"],
  ["CCOS(=O)(=O)OCC", "CCRIS mutagenicity, Ames/micronucleus/aberration tests", "T"],
  ["O=C1C=CC(=O)C(Cl)=C1", "CCRIS mutagenicity, Ames/micronucleus/aberration tests", "F"],
  ["Oc1ccccc1", "CCRIS mutagenicity, Ames/micronucleus/aberration tests", "F"],
  ["COC(=O)c1ccccc1C(=O)OC", "CCRIS mutagenicity, Ames/micronucleus/aberration tests", "F"],
  ["OCc1ccccc1", "CCRIS mutagenicity, Ames/micronucleus/aberration tests", "F"],
  ["C1CCCNCC1", "CCRIS mutagenicity, Ames/micronucleus/aberration tests", "F"],
  ["O=[N+]([O-])c1ccc2oc3ccc([N+](=O)[O-])cc3c2c1", "CCRIS mutagenicity, Ames/micronucleus/aberration tests", "F"],
  ["CCCCOCC1CO1 (stereo unspecified)", "CCRIS mutagenicity, Ames/micronucleus/aberration tests", "T"],
  ["O=S(=O)(O)c1cc(S(=O)(=O)O)c2cc(O)ccc2c1", "CCRIS mutagenicity, Ames/micronucleus/aberration tests", "F"],
  ["COc1ccc2c3c1O[C@H]1[C@@H](O)C=C[C@H]4[C@@H](C2)N(C)CC[C@@]341", "CCRIS mutagenicity, Ames/micronucleus/aberration tests", "F"],
  ["Nc1ccc2cccnc2c1", "CCRIS mutagenicity, Ames/micronucleus/aberration tests", "T"],
  ["O=C(O)c1ccc2c(c1)C(=O)OC2=O", "CCRIS mutagenicity, Ames/micronucleus/aberration tests", "F"],
  ["Nc1cccc([N+](=O)[O-])c1CO", "CCRIS mutagenicity, Ames/micronucleus/aberration tests", "F"],
  ["Nc1cccc([N+](=O)[O-])c1N", "CCRIS mutagenicity, Ames/micronucleus/aberration tests", "T"],
  ["O=NN1CSCC1C(=O)O (stereo unspecified)", "CCRIS mutagenicity, Ames/micronucleus/aberration tests", "F"],
  ["ClC(Cl)=C(Cl)Cl", "CCRIS mutagenicity, Ames/micronucleus/aberration tests", "F"],
  ["Nc1c(Cl)cc([N+](=O)[O-])cc1Cl", "CCRIS mutagenicity, Ames/micronucleus/aberration tests", "F"],
  ["Cc1nc(N)nc(N)n1", "CCRIS mutagenicity, Ames/micronucleus/aberration tests", "F"],
  ["Cc1cc(N=Nc2c(O)ccc3ccccc23)c(S(=O)(=O)O)cc1Cl", "CCRIS mutagenicity, Ames/micronucleus/aberration tests", "F"],
  ["Cc1cc(-c2ccc(N=C=O)c(C)c2)ccc1N=C=O", "CCRIS mutagenicity, Ames/micronucleus/aberration tests", "F"],
  ["NCCCCCCCCCCCC(=O)O", "CCRIS mutagenicity, Ames/micronucleus/aberration tests", "F"],
  ["CC(Cl)(Cl)[N+](=O)[O-]", "CCRIS mutagenicity, Ames/micronucleus/aberration tests", "F"],
  ["[B-]", "CCRIS mutagenicity, Ames/micronucleus/aberration tests", "F"],
  ["O=C1C=C(O)c2ccccc2C1=O", "CCRIS mutagenicity, Ames/micronucleus/aberration tests", "F"],
  ["c1ccc(Cc2ccc(CC3CO3)cc2)cc1 (stereo unspecified)", "CCRIS mutagenicity, Ames/micronucleus/aberration tests", "F"],
  ["CCCCCCCCOP(=O)(OCCCCCCCC)OCCCCCCCC", "CCRIS mutagenicity, Ames/micronucleus/aberration tests", "F"],
  ["O=c1c2[nH]c3ccccc3c2nnn1/N=C/c1ccc(Cl)cc1", "CCRIS mutagenicity, Ames/micronucleus/aberration tests", "F"],
  ["CS(=O)(=O)c1ccc(O)c(N)c1", "CCRIS mutagenicity, Ames/micronucleus/aberration tests", "F"],
  ["N[C@@H](CS/C(Cl)=C(\\Cl)C(Cl)=C(Cl)Cl)C(=O)O", "CCRIS mutagenicity, Ames/micronucleus/aberration tests", "T"],
  ["CN1CCN(C)CC1", "CCRIS mutagenicity, Ames/micronucleus/aberration tests", "F"],
  ["CCC(CC)[N+](=O)[O-]", "CCRIS mutagenicity, Ames/micronucleus/aberration tests", "F"],
  ["CCCC(C)(COC(N)=O)COC(=O)NC(C)C (stereo unspecified)", "CCRIS mutagenicity, Ames/micronucleus/aberration tests", "F"],
  ["O[C@H]([C@H](O)[C@@H](O)CBr)[C@H](O)CBr", "CCRIS mutagenicity, Ames/micronucleus/aberration tests", "T"],
  ["Nc1ccc(Sc2ccc(N)cc2)cc1", "CCRIS mutagenicity, Ames/micronucleus/aberration tests", "T"],
  ["F", "CCRIS mutagenicity, Ames/micronucleus/aberration tests", "F"],
  ["CCC(C)c1ccccc1O (stereo unspecified)", "CCRIS mutagenicity, Ames/micronucleus/aberration tests", "F"],
  ["CCCCCCCCCCCCS", "CCRIS mutagenicity, Ames/micronucleus/aberration tests", "F"],
  ["O.O.O.O.O.O.O=[N+]([O-])[O-].O=[N+]([O-])[O-].O=[N+]([O-])[O-].[La+3]", "CCRIS mutagenicity, Ames/micronucleus/aberration tests", "F"],
  ["O=C(Cl)C(Cl)c1ccccc1 (stereo unspecified)", "CCRIS mutagenicity, Ames/micronucleus/aberration tests", "T"],
  ["OCC(CO)(CBr)CBr", "CCRIS mutagenicity, Ames/micronucleus/aberration tests", "F"],
  ["Cc1cccc2c1cc(C)c1c3c(ccc12)C(O)C(O)C1OC31 (stereo unspecified)", "CCRIS mutagenicity, Ames/micronucleus/aberration tests", "T"],
  ["COc1c2occc2cc2ccc(=O)oc12", "CCRIS mutagenicity, Ames/micronucleus/aberration tests", "F"],
  ["CC(=O)Nc1cccc(C)c1", "CCRIS mutagenicity, Ames/micronucleus/aberration tests", "F"],
  ["O=S(=O)(O)c1ccccc1", "CCRIS mutagenicity, Ames/micronucleus/aberration tests", "F"],
  ["NCCc1c[nH]c2ccccc12", "CCRIS mutagenicity, Ames/micronucleus/aberration tests", "F"]
]}
